# System: OVCAR-5 ovarian
# Assay Notes: NCI-60 one-dose screen, 48 h (100 = growth as untreated, 0 = no growth, -100 = all killed)
# Experimental Conditions: 10 µM unless noted
The panel holds about 83,000 compounds, 20% with a hit somewhere; the sample as a whole holds those more often.
Quantity Kind: growth (%)
Please state the figure in %; there is no need to write the unit.

Give a short answer stating reported growth for N=c1c2cc(-c3ccccc3)oc2ncn1/N=C/c1ccccc1 .
83.5

Give recorded growth. COc1ccc(/C=C/C(=O)c2nnn(-c3ccc(Br)cc3)c2C)cc1OC
94.1

Specify reported growth for the compound shown: Cn1c(SC(C(=O)Nc2ccc(F)cc2)c2ccccc2)nc2ccccc2c1=O (stereo not given)
111

Give recorded growth. C#C[C@]1(O)CC[C@H]2[C@@H]3CC=C4c5sc(C6CC6)nc5CC[C@]4(C)[C@H]3CC[C@@]21C
85.7

Report growth for O=C1Nc2cc(OC(F)(F)F)ccc2Oc2ccc(-c3ccnc(N4CC[C@H](O)C4)c3)cc21
25.5

Read the entry COc1ccc(NS(=O)(=O)c2ccc(-c3cnc(C4CC4)o3)cc2)cc1Cl and write its reported growth.
48.8

Note down growth recorded for O=C(Nc1ccc(-c2nc(-c3cccc(O)c3)c(-c3ccnc(Br)c3)[nH]2)cc1)c1ccccc1
57.7

Quickly give me recorded growth for NS(=O)(=O)Oc1ccc2nc(Nc3ccc(F)c(F)c3)ccc2c1
91.6

Recall and state the measured growth for COc1ccc(-c2oc3cc(O)cc(O)c3c(=O)c2OC)cc1O .
59.8

Input CCOC(=O)C1=C(C)Nc2nc3ccccc3n2C1c1ccccc1 (stereo not given) , output reported growth.
104
